# procedure-text: NCI Yeast Anticancer Drug Screen. Data for the bub3 strain (AID 167)
# experimental-context: S. cerevisiae bub3 mutant strain, at 50.0 µM
About 79,000 compounds went through this panel and 15% of them were active in at least one assay; those are over-represented in the sample as a whole. Calls of active or inactive are those of the source. Rule as the data show it: active = growth inhibition above about 70%; inactive = the rest.
Bench note: report the call from t (active), f (inactive)

Check out these entries, answers already filled in.
| molecule | classification |
| --- | --- |
| CC1=Nc2ccccc2/C1=C\c1c(C)[nH]c2ccccc12 | t |
| S=c1c2ccccc2[nH]c2ccccc12 | t |

**Query** # outcome recorded in this test, key = "Cc1ccc(C)c(N(c2ccccc2[N+](=O)[O-])S(C)(=O)=O)c1"
**Result** t

**Query** # outcome recorded in this test, key = CN(C)CCOC1OCN(C)CC1(C)C (centres undefined)
**Result** f

**Query** # outcome recorded in this test, key = "CCN(CC)C(=O)N1CCN(c2cccc(Cl)c2)CC1"
**Result** t

**Query** # outcome recorded in this test, key = CCCCCCCCCCC[N+]1(Cc2ccccc2)CC2CCN(Cc3ccccc3)CC2C1 (centres undefined)
**Result** t

**Query** # outcome recorded in this test, key = "O=Cc1c(O)ccc2ccccc12"
**Result** t

**Query** # outcome recorded in this test, key = "N=C(N)c1ccc(SCCCCCSc2ccc(C(=N)N)cc2)cc1"
**Result** f

* * *

# procedure-text: NCI Yeast Anticancer Drug Screen. Data for the bub3 strain (AID 167)
# experimental-context: S. cerevisiae bub3 mutant strain, at 50.0 µM (retest, dose inferred, filed as 5.0)
Compounds without any hit were thinned out: in the full panel of roughly 79,000, 15% have a hit. Calls of active or inactive are those of the source. No stated cut-off is given here; in the data, active means growth inhibition above about 70%; inactive means the rest.
Bench note: report the call from active, inactive

| molecule | classification |
| --- | --- |
| CCc1ccc2ccc3ccc(CC)nc3c2n1 | active |
| CCOC(=O)C1=C(c2ccccc2)OC(N)=C(C#N)C1c1ccc(C)cc1 (centres undefined) | inactive |
| c1ccc(-n2c3ccccc3c3ccccc32)cc1 | inactive |
| CCOc1ccc2c(c1)n([O-])c1ccccc1[n+]2=O | active |
| COC(=O)CC1SC(=S)N(Cc2ccc(Cl)cc2)C1=O (centres undefined) | active |
| CCc1ccc(C)nc1 | inactive |

**Query** # outcome recorded in this test, key = "Nc1nc(Cl)cc(Nc2ccc(Cl)c(Cl)c2)n1"
**Result** active

**Query** # outcome recorded in this test, key = CCCCCCCCCCCCCCCC[N+](C)(C)C(C)c1ccccc1 (centres undefined)
**Result** active

**Query** # outcome recorded in this test, key = "Cc1ccc(/C=C/C(=O)/C=C/c2ccc(C)o2)o1"
**Result** inactive

**Query** # outcome recorded in this test, key = "Cc1c[nH]c(C(=O)O)c1-c1ccc2c(-c3ccccc3)nc3ccccc3n12"
**Result** active

**Query** # outcome recorded in this test, key = "CN1/C(=C/C=C/C(I)=C/C=C/C2=[N+](C)c3ccccc3C2(C)C)C(C)(C)c2ccccc21"
**Result** active

**Query** # outcome recorded in this test, key = CC1(c2ccc(F)cc2)OC(=O)c2c1ccc1ccccc21 (centres undefined)
**Result** active

* * *

Kindly state growth inhibition for each of the entries shown.
# procedure-text: NCI Yeast Anticancer Drug Screen. Data for the rad50 strain (AID 155);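 also: 0% = growth of vehicle-only cultures of the same strain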
# experimental-context: S. cerevisiae rad50 strain growth inhibition; at 5.0 µM (retest, dose inferred, filed as 0.5); active compounds read high
This is part of a sample that, as a whole, favours compounds with a hit. Of some 79,000 tested, about 15% had one in any assay. Activity calls are given as the source filed them. No stated cut-off is given here; in the data, active means growth inhibition above about 70%; inactive means the rest.

Solved entries:
| molecule | growth inhibition |
| --- | --- |
| O=C(C#CC(=O)[O][Sn]([c]1ccccc1)([c]1ccccc1)[c]1ccccc1)[O][Sn]([c]1ccccc1)([c]1ccccc1)[c]1ccccc1 | 99% (active) |
| CCCCCCCC/C(C=O)=C\c1ccccc1 | -3% (inactive) |
| CSc1ccc(/C=C2\CN(C)C/C(=C\c3ccc(SC)cc3)C2=O)cc1 | 43% (inactive) |
| Cc1ccc(NC(=O)CC2SC(N)=NC2=O)cc1C (configuration not stated) | -1% (inactive) |
| O=C(O)CSc1cc2c3ccccc3sc2c2ccccc12 | 16% (inactive) |
| CC1C[N+](C)(C)C(C)C(=O)C1(c1ccccc1)c1ccccc1 (configuration not stated) | -9% (inactive) |
| N[C@@H]1CCCC[C@@H]1N.O=C([O-])CN(CP(=O)([O-])[O-])CP(=O)([O-])[O-].[Pt+2] | -1% (inactive) |
| OC(c1cc(-c2ccccc2)nc2cc(Cl)ccc12)C1CCCCN1 (configuration not stated) | -2% (inactive) |

Please give growth inhibition for each item listed below.
1. O=C1NC(O)c2cccc(Cl)c2O1 (configuration not stated)
2. CC1/C(=N\O)CC(c2ccccc2)N(C)C1c1ccccc1 (configuration not stated)
3. O=[N+]([O-])c1c(Cl)c(Cl)c(O)c(Cl)c1Cl
4. OC(CC(CC(O)(C(F)(F)F)C(F)(F)F)=NN=C(CC(O)(C(F)(F)F)C(F)(F)F)CC(O)(C(F)(F)F)C(F)(F)F)(C(F)(F)F)C(F)(F)F

**Result**
1. 52% (inactive)
2. 96% (active)
3. 55% (inactive)
4. 41% (inactive)
